# target_under_test: Carnitine O-palmitoyltransferase 1, liver isoform (Rattus norvegicus)
# Sequence (P32198 whole entry, canonical isoform): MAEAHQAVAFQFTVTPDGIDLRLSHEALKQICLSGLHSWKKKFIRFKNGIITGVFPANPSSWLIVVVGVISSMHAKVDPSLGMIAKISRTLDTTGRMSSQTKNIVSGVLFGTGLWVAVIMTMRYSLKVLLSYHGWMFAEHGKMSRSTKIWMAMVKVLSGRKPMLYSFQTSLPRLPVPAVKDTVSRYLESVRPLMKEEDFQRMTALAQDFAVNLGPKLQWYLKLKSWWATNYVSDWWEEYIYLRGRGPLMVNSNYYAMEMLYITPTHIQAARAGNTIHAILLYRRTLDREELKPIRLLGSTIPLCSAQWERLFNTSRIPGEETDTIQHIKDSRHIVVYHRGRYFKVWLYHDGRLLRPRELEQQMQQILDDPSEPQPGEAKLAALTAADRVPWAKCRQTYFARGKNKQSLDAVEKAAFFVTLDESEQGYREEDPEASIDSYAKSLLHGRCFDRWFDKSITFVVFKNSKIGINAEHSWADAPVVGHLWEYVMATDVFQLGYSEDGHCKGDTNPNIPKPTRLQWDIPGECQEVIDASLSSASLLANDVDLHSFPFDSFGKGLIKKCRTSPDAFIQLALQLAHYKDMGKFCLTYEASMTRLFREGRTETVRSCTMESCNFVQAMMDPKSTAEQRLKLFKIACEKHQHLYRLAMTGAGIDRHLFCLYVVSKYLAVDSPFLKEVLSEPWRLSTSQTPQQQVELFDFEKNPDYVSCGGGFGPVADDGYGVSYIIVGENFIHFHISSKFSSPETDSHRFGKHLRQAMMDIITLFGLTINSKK
# assay_procedure: SUPPLEMENTARY: Inhibition of Carnitine palmitoyltransferase 1, liver isoform
Exercise: for every item that follows, state its recorded pIC50.
Answers are plain numbers, as −log10 of the molar value.

# batch: return pIC50 for each of the 2 compounds below
1. NNC(=O)c1cccc(-c2n[nH]c([C@H]3CCCCN3C(=O)COc3ccccc3)n2)c1
2. COc1ccc(Cl)cc1S(=O)(=O)N(C)c1cc(C(=O)Nc2ncc(CC(=O)O)s2)cc2c1OCO2

1: 5.79; 2: 7.41

* * *

Entries with their measured IC50, system Carnitine O-palmitoyltransferase 2, mitochondrial (Homo sapiens):

Answered cases to consult:
molecule_smiles: COc1ccc(Cl)cc1Cn1cc(C(=O)O)c2ccc(C(=O)Nc3ccccc3)cc21
target_under_test: Carnitine O-palmitoyltransferase 2, mitochondrial (Homo sapiens)
IC50: > 100 µM
--
molecule_smiles: O=C([C@H]1CCCCN1C(=O)COc1ccccc1)N1Cc2cc(F)c(OC3CCOCC3)cc2C1
target_under_test: Carnitine O-palmitoyltransferase 2, mitochondrial (Homo sapiens)
IC50: 0.507 µM

Consider the following items and state reported IC50 for each.
1. COc1ccc(Cl)cc1S(=O)(=O)c1c2cc(C(=O)Nc3ccccc3)ccc2nn1C
2. O=C1COc2cc(C#C[C@H]3CCCCN3C(=O)COc3ccccc3)ccc2N1
3. O=C(COc1ccccc1)N1CCCC[C@@H]1c1nc(-c2cc[nH]c(=O)c2)no1

> 100 µM
> 100 µM
> 100 µM

* * *

What Papp was measured for each of the following?
# assay_procedure: SUPPLEMENTARY: PAMPA permeability assay
# Format: physicochemical
# assay_setup: read-out: Permeability
One number for each entry, in ×10⁻⁶ cm/s.

molecule_smiles: CCC(=O)Nc1cccc(-c2n[nH]c([C@H]3CCCCN3C(=O)COc3ccccc3)n2)c1
value: 2.89
//
molecule_smiles: COc1ccc(Cl)cc1CN1C(=O)C2(CC2)c2ccc(C(=O)Nc3ccc(C(=O)O)cc3)cc21
value: 1.24
//
molecule_smiles: COc1ccc(Cl)cc1S(=O)(=O)N1COc2c(F)cc(C(=O)Nc3ccc(C(=O)O)c(Cl)c3)cc21
value: 1.79

Short answer for COc1ccc(Cl)cc1S(=O)(=O)N1CCOc2ccc(C(=O)Nc3ccc(-c4noc(=O)[nH]4)cc3)cc21 : Papp was 0.93

* * *

# assay_procedure: SUPPLEMENTARY: Lipophilicity (log D) Determination by high-throughput shake-flask
# Type: physicochemical
# assay_setup: octanol/water
Assign logD to each entry below.

molecule: CC(=O)c1ccc(-c2nc([C@H]3CCCCN3C(=O)COc3ccccc3)no2)cc1
value: 3.25

Batch: logD for all items listed.
1. O=C(COc1ccccc1)N1CCCC[C@@H]1c1nc(-c2cccc(-c3nnco3)c2)n[nH]1
2. O=C(O)c1ccc(NC(=O)c2ccc(NS(=O)(=O)c3cc(Cl)cc(Cl)c3)s2)cc1
3. COc1ccc(Cl)cc1S(=O)(=O)N1CC(C)c2ccc(C(=O)Nc3ccc(C(=O)O)c(F)c3)cc21 (centres undefined)
4. O=C(O)c1ccc(NC(=O)c2ccc3c(c2)N(S(=O)(=O)c2cccc(Cl)c2)CCO3)cc1
5. O=C(Nc1ccc(C(=O)O)c(F)c1)c1ccc2c(c1)N(S(=O)(=O)c1ccc(Cl)c(Cl)c1)CC2
6. O=C([C@H]1CCCCN1C(=O)COc1ccccc1)N1Cc2ccc(Cl)cc2C1
7. Cc1ncc(-c2noc([C@H]3CCCCN3C(=O)COc3ccccc3)n2)c(=O)[nH]1

1. 2.66
2. -1.09
3. 0.6
4. 2.92
5. 2.84
6. 3.26
7. 1.14

Kindly note the recorded logD for COc1ccc(Cl)cc1S(=O)(=O)N1COc2ccc(C(=O)Nc3ccc(CC(=O)O)cc3)cc21 , which is 0.28

* * *

# target_under_test: Carnitine O-palmitoyltransferase 1, liver isoform (Homo sapiens, UniProt P50416)
# Sequence (P50416 whole entry): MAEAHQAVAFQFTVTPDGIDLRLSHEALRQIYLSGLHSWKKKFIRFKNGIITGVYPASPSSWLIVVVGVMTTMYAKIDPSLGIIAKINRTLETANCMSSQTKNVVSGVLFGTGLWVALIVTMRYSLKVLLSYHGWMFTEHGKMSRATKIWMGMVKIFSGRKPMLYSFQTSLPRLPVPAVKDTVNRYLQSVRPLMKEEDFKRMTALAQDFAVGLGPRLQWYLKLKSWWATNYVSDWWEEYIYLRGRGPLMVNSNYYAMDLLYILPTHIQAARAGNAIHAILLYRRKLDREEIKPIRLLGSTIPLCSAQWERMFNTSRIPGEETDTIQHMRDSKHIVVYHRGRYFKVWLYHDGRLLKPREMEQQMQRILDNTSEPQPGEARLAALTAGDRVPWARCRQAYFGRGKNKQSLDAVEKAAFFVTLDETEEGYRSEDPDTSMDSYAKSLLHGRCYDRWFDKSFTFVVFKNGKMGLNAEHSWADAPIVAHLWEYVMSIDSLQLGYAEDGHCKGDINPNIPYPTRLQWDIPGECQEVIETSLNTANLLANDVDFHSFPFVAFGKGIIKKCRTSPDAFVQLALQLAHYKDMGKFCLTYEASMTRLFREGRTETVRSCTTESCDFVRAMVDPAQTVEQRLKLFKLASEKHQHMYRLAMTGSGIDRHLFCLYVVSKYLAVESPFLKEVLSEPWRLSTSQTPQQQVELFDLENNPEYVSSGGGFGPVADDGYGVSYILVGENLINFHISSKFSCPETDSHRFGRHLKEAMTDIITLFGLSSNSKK
# assay_procedure: SUPPLEMENTARY: Inhibition of Carnitine palmitoyltransferase 1, liver isoform
Consider the following compounds; for each one, report its pIC50.
One number for each entry, as −log10 of the molar value.

In the examples that follow, each entry is paired with its recorded pIC50.
compound: COc1ccc(Cl)cc1S(=O)(=O)N1CC(C(=O)O)Cc2ccc(C(=O)Nc3ccccc3)cc21 (stereo not drawn)
pIC50: 7.68

compound: O=C(O)c1ccc(NC(=O)c2ccc3c(c2)N(Cc2cccc(Cl)c2)C(=O)CS3(=O)=O)cc1
pIC50: 6.64

compound: COc1ccc(Cl)cc1S(=O)(=O)N1CCOc2c(F)cc(C(=O)Nc3ccc(C(=O)O)c(F)c3)cc21
pIC50: 7.24

compound: O=C(COc1ccccc1)N1CCCC[C@@H]1c1noc(-c2cccc(N3CCCS3(=O)=O)c2)n1
pIC50: 7.17

compound: CCOc1ccc(C(=O)Nc2ccc(CC(=O)O)cc2)cc1N(CCS(=O)O)S(=O)(=O)c1cc(Cl)ccc1OC
pIC50: 6.98

Please give pIC50 for each item listed below.
1. Nc1ccc(-c2noc([C@H]3CCCCN3C(=O)COc3ccccc3)n2)cn1
2. COc1ccc(Cl)cc1S(=O)(=O)Nc1cccc(C(=O)Nc2ccc(-c3nnn[nH]3)cc2)c1
3. Nc1cc(-c2noc([C@H]3CCCCN3C(=O)COc3ccccc3)n2)ccn1
4. Cc1cc(C)cc(S(=O)(=O)N2CCc3ccc(C(=O)Nc4nc(CC(=O)O)cs4)cc32)c1
5. O=C(Nc1ccc(C(=O)O)c(F)c1)c1ccc2c(c1)N(S(=O)(=O)c1ccc(Cl)c(Cl)c1)CC2
6. COc1ccc(Cl)cc1S(=O)(=O)N1CCOc2c(F)cc(C(=O)Nc3ccc(C(=O)O)c(Cl)c3)cc21
7. O=C(COc1ccccc1)N1CCCC[C@@H]1c1noc(-c2cc(F)c(F)cc2F)n1

[7.46, 7.73, 6.97, 7.78, 6.99, 6.88, 6.81]

* * *

Target sequence: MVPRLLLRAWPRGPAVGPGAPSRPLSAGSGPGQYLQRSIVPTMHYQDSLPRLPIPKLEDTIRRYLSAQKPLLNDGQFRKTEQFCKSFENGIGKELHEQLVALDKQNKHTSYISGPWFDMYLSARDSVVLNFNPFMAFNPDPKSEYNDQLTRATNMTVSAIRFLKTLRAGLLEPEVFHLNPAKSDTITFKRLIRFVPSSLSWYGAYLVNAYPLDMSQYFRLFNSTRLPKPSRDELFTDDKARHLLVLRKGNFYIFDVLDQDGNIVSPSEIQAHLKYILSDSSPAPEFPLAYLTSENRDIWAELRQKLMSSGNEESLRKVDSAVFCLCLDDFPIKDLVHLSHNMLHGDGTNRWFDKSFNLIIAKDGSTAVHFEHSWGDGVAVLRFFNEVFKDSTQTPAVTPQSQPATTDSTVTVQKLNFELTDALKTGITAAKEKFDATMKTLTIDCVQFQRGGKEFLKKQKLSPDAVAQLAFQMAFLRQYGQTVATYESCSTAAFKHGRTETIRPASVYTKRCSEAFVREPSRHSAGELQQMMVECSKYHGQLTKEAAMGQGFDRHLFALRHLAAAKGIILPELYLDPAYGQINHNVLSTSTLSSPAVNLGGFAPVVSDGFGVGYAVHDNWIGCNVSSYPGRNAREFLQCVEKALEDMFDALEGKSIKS
Would you kindly list pIC50 for each of these compounds?
Numbers only, as −log10 of the molar value.

Worked set:
molecule_smiles: O=C1Nc2ccc(-c3noc([C@H]4CCCCN4C(=O)COc4ccccc4)n3)cc2CO1
pIC50: 5.32
//
molecule_smiles: COc1ccc(Cl)cc1S(=O)(=O)N1CCc2ccc(C(=O)Nc3ccc(C(=O)O)c(Cl)c3)cc21
pIC50: 6.01

# next compound below
Reported pIC50 of O=C(COc1ccccc1)N1CCCC[C@@H]1c1noc(C2CCCCC2)n1 : 4.32
